- MEASUREMENT PROTOCOL: Displacement of [3H]-Astemizole from human ERG
RECORDED ENDPOINT: IC50

SMILES: C[C@@H](OC(=O)N1CCC(O[C@H]2CC[C@H](Oc3cnc(S(C)(=O)=O)cn3)CC2)CC1)C(F)(F)F
REPORTED MEASUREMENT: > 1000 µM
